# target_under_test: T1, CRBN, Q96SW2;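 note: pooled lentiviral library of zinc finger degron-EGFP fusions in mCherry-positive Jurkat cells, FACS-sorted after compound exposure, with degron abundance counted by next-generation sequencing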
# T1 chain: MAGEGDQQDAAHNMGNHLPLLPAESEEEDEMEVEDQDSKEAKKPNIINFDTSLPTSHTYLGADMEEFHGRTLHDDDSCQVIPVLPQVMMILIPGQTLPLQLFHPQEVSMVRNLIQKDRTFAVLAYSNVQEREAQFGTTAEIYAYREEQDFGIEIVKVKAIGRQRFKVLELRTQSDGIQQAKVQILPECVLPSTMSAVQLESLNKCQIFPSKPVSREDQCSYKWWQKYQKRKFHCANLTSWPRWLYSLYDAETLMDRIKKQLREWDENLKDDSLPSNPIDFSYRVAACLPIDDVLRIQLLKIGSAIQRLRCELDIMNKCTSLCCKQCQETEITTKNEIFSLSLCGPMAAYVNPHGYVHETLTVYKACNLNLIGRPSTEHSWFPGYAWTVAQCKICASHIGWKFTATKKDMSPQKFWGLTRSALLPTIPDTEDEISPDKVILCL
# protocol_details: log2 fold change of degron read counts, EGFP-low vs EGFP+ sorted cells (limma voom), compound-induced degradation; higher = more compound-induced degradation of the degron-EGFP fusion; degrons are variants of IKZF1/3 zinc finger 2; compound dose not given here
# measurement_parameters: Jurkat; 18 h; compound: compound 22 (5-morpholino-thalidomide)
The full ranking holds about 8,300 sequences; the median of “log2 fold change of degron read counts, EGFP-low vs EGFP+ sorted cells (limma voom), compound-induced degradation” is about -1.1, and the highest 2% start at about 3.2. The list comes from a sample in which the highest values are over-represented; it also holds close analogues and randomly drawn sequences.
For each of the sequences below, state its log2 fold change of degron read counts.

Item FLCPICGACFTQKGNLLRHIKL [46F_47L_49P_50I_52G_53A_54C_55F_67L_, Q9UKT9] : provide log2 fold change of degron read counts
-0.175

Item FWCPICGACFTQKGNLLRHIKL [46F_47W_49P_50I_52G_53A_54C_55F_67L_, Q9UKT9] : provide log2 fold change of degron read counts
3.31

Item FQCNQCGAYFTQKGNLLRHIKL [46F_47Q_49N_50Q_52G_53A_54Y_55F_67L_, Q9UKT9] : provide log2 fold change of degron read counts
-2.26

Item FACPICGACFTQKGNLLRHIKL [46F_47A_49P_50I_52G_53A_54C_55F_67L_, Q9UKT9] : provide log2 fold change of degron read counts
2.09

Item FRCNQCGHNFTQKGNLLRHIKL [46F_47R_49N_50Q_52G_53H_54N_55F_67L_, Q9UKT9] : provide log2 fold change of degron read counts
-3.14

Item FTCNQCGRMFTQKGNLLRHIKL [46F_47T_49N_50Q_52G_53R_54M_55F_67L_, Q9UKT9] : provide log2 fold change of degron read counts
-2.23

Item LCCNQCGFWCTQKGNLLRHIKL [46L_47C_49N_50Q_52G_53F_54W_55C_67L_, Q9UKT9] : provide log2 fold change of degron read counts
-1.34

Item FMCPICGACFTQKGNLLRHIKL [46F_47M_49P_50I_52G_53A_54C_55F_67L_, Q9UKT9] : provide log2 fold change of degron read counts
0.429

Item FGCDICGARFTQKGNLLRHIKL [46F_47G_49D_50I_52G_53A_54R_55F_67L_, Q9UKT9] : provide log2 fold change of degron read counts
0.817

Item FHCNQCGHDFTQKGNLLRHIKL [46F_47H_49N_50Q_52G_53H_54D_55F_67L_, Q9UKT9] : provide log2 fold change of degron read counts
-2.92

Item FVCPICGACFTQKGNLLRHIKL [46F_47V_49P_50I_52G_53A_54C_55F_67L_, Q9UKT9] : provide log2 fold change of degron read counts
2.13

Item FSCPQCGAAFTQKGNLLRHIKL [46F_47S_49P_50Q_52G_53A_54A_55F_67L_, Q9UKT9] : provide log2 fold change of degron read counts
-0.952

Item FDCPICGACFTQKGNLLRHIKL [46F_47D_49P_50I_52G_53A_54C_55F_67L_, Q9UKT9] : provide log2 fold change of degron read counts
0.401

Item FCCPICGRMFTQKGNLLRHIKL [46F_47C_49P_50I_52G_53R_54M_55F_67L_, Q9UKT9] : provide log2 fold change of degron read counts
-0.371

Item FICSVCGHEFTQKGNLLRHIKL [46F_47I_49S_50V_52G_53H_54E_55F_67L_, Q9UKT9] : provide log2 fold change of degron read counts
-3.92

Item FTCDQCGAIFTQKGNLLRHIKL [46F_47T_49D_50Q_52G_53A_54I_55F_67L_, Q9UKT9] : provide log2 fold change of degron read counts
-2.8

Item FECEICGHHFTQKGNLLRHIKL [46F_47E_49E_50I_52G_53H_54H_55F_67L_, Q9UKT9] : provide log2 fold change of degron read counts
-3.77

Item FYCPICGACFTQKGNLLRHIKL [46F_47Y_49P_50I_52G_53A_54C_55F_67L_, Q9UKT9] : provide log2 fold change of degron read counts
3.63

Item FLCDVCGAKFTQKGNLLRHIKL [46F_47L_49D_50V_52G_53A_54K_55F_67L_, Q9UKT9] : provide log2 fold change of degron read counts
-3.99

Item FSCPICGACFTQKGNLLRHIKL [46F_47S_49P_50I_52G_53A_54C_55F_67L_, Q9UKT9] : provide log2 fold change of degron read counts
2.22

Item FQCNQCGRQFTQKGNLLRHIKL [46F_47Q_49N_50Q_52G_53R_54Q_55F_67L_, Q9UKT9] : provide log2 fold change of degron read counts
-3.61

Item FWCDICGARFTQKGNLLRHIKL [46F_47W_49D_50I_52G_53A_54R_55F_67L_, Q9UKT9] : provide log2 fold change of degron read counts
3.82

Item FFCDICGARFTQKGNLLRHIKL [46F_47F_49D_50I_52G_53A_54R_55F_67L_, Q9UKT9] : provide log2 fold change of degron read counts
3.35

Item FQCPICGACFTQKGNLLRHIKL [46F_47Q_49P_50I_52G_53A_54C_55F_67L_, Q9UKT9] : provide log2 fold change of degron read counts
3.06

Item FLCNVCGAQFTQKGNLLRHIKL [46F_47L_49N_50V_52G_53A_54Q_55F_67L_, Q9UKT9] : provide log2 fold change of degron read counts
-2.24

Item FACDICGARFTQKGNLLRHIKL [46F_47A_49D_50I_52G_53A_54R_55F_67L_, Q9UKT9] : provide log2 fold change of degron read counts
1.91

Item FFCEICGHVFTQKGNLLRHIKL [46F_47F_49E_50I_52G_53H_54V_55F_67L_, Q9UKT9] : provide log2 fold change of degron read counts
-1.97

Item FDCPICGRVFTQKGNLLRHIKL [46F_47D_49P_50I_52G_53R_54V_55F_67L_, Q9UKT9] : provide log2 fold change of degron read counts
-0.635

Item FICEICGHSFTQKGNLLRHIKL [46F_47I_49E_50I_52G_53H_54S_55F_67L_, Q9UKT9] : provide log2 fold change of degron read counts
-2.78

Taken from the supplement of paper PMC12645437.
